Some molecules, each annotated with its measured pIC50.
target: human PAD4 (Homo sapiens, UniProt Q9UM07); construct: human PAD4 (NM_012387), A2-P663, was PCR amplified; His-SUMO (N, cleaved yes); assay: In vitro PAD4 BAEE biochemical assay; details: BAEE substrate 3 mM, 5 nM PAD4, 2 mM calcium chloride; geometric mean of multiple experiments
Sequence (Q9UM07 2-663): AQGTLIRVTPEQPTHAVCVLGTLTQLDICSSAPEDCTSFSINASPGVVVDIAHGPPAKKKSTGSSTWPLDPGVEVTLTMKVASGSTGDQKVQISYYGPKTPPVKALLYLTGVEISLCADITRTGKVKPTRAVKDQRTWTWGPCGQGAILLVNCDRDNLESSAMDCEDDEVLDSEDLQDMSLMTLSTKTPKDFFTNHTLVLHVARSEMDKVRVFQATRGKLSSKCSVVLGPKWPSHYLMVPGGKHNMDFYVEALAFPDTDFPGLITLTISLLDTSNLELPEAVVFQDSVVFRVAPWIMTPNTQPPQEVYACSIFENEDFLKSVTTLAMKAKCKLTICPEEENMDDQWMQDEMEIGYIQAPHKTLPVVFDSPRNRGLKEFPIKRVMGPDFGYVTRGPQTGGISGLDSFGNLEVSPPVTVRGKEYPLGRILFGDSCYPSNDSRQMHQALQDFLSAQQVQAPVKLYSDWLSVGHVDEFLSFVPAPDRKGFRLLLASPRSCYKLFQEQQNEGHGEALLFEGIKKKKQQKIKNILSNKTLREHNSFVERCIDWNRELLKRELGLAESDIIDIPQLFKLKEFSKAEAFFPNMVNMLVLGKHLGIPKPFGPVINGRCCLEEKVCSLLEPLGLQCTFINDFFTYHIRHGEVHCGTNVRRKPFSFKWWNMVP
pIC50: −log10 of the molar value.

# molecule, target_entity, pIC50
rows = [
    ("COCCn1c(-c2cc3ccc4nc3n2CCCCC[C@@H]2C[C@H]2C(=O)N[C@@H]4C)nc2cc(C(=O)N[C@H]3CNCC[C@@H]3F)c(F)c(F)c21 [Example 559]", "human PAD4 (Homo sapiens, UniProt Q9UM07)", 7.33),
    ("COc1cc(C(=O)N[C@H]2CNCC[C@@H]2F)cc2nc(-c3cc4ccc5nc4n3CCCCC[C@@H]3[C@@H](C(=O)N[C@@H]5C)C3(F)F)n(C)c12 [Example 369]", "human PAD4 (Homo sapiens, UniProt Q9UM07)", 7.43),
    ("COc1cc(C(=O)N2C[C@H](N)[C@@H]3CC[C@H]2C3)cc2nc(-c3cc4ccc5nc4n3CCCCCC[C@](C)(F)C(=O)N[C@@H]5C)n(C)c12 [Example 949]", "human PAD4 (Homo sapiens, UniProt Q9UM07)", 7.51),
    ("COc1cc(C(=O)N(C)[C@H]2CNCC[C@@H]2F)cc2nc(-c3cc4ccc5nc4n3CCCCCCC(C)(C)C(=O)N[C@@H]5C)n(C)c12 [Example 514]", "human PAD4 (Homo sapiens, UniProt Q9UM07)", 6.43),
    ("C[C@H]1NC(=O)c2c(ccnc2C(F)(F)F)CCCCCn2c(-c3nc4cc(C(=O)N5C[C@H](N)[C@@H]6CC[C@H]5C6)cc(F)c4n3C3CC3)cc3ccc1nc32 [Example 478]", "human PAD4 (Homo sapiens, UniProt Q9UM07)", 7.30),
    ("COc1cc(C(=O)N2[C@H]3CC[C@@H]2[C@H](N)C3)cc2nc(-c3cc4ccc5nc4n3CCCCCOCC(C)(C)C(=O)N[C@@H]5C)n(C)c12 [Example 22]", "human PAD4 (Homo sapiens, UniProt Q9UM07)", 7.21),
    ("C[C@H]1NC(=O)[C@@H]2C[C@@H]2CCCCCn2c(-c3nc4cc(C(=O)N[C@H]5CNCC[C@@H]5F)c(F)cc4n3C3CC3)cc3ccc1nc32 [Example 520]", "human PAD4 (Homo sapiens, UniProt Q9UM07)", 7.46),
    ("COc1cc(C(=O)N2[C@H]3CC[C@@H]2[C@H](N)C3)cc2nc(-c3cc4ccc5nc4n3CCCCN(C)C(=O)N[C@@H]5C)c(C)n12 [Example 209]", "human PAD4 (Homo sapiens, UniProt Q9UM07)", 7.13),
]
